Kindly supply the reported pIC50 values for the records listed here.
ASSAY_SYSTEM: Granzyme B (human lymphocytes) (Homo sapiens, UniProt P10144)
Construct: Supplied Granzyme B (human lymphocytes) enzyme is reconstituted to 1 mg/ml (about 31.25 μM); purchased Enzo Lifesciences ALX-200-602-0010; host or cells: human lymphocytes
Sequence (P10144 21-247): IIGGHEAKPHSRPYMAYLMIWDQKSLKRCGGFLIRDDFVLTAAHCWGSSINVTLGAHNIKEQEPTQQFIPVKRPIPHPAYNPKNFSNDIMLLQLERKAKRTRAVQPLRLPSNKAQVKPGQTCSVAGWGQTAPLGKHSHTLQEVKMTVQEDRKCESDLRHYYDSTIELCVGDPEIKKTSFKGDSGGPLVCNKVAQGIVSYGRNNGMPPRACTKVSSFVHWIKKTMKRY
MEASUREMENT_NOTES: human Granzyme B biochemical assay
CONDITION_INFO: Granzyme B (human lymphocytes) 5 nM, substrate Ac-IETD-AFC 200 μM, 30 mins incubation, 22° C.
pIC50: −log10 of the molar value.

The following molecules have reported results that may help.
# MOLECULE, pIC50
rows = [
    ("CC[C@H](C)[C@@H](C(=O)N[C@H]1CCc2cccc3c2N(C1=O)[C@H](C(=O)NCc1c[nH]nn1)C3)N(CCOCCCF)C(=O)Cc1nc2ccccc2o1 (single isomer, unassigned) [Compound C179]", "6.00 to 6.52"),
    ("CC[C@H](C)[C@@H](C(=O)N[C@H]1CCc2cccc3c2N(C1=O)[C@H](C(=O)NCc1c[nH]nn1)C3)N(C)C(=O)COCCF (single isomer, unassigned) [Compound C155]", "6.00 to 6.52"),
]

(Q) Look at this molecule and give its reported pIC50. CC[C@H](C)[C@@H](C(=O)N[C@H]1CCc2cccc3c2N(C1=O)[C@H](C(=O)NCc1c[nH]nn1)C3)N(C)C(=O)Cc1c[nH]cn1 (single isomer, unassigned) [Compound C197]
(A) 6.00 to 6.52
